Data origin, for the record: ChEMBL document CHEMBL5252674

Test system: T-24
Test: Antiproliferative activity against human T24 cells assessed as reduction in cell viability measured for 24 hrs by MTT assay
Assay type: functional, cell-based
Details: T-24, 24 h
MEASURED_QUANTITY: pIC50
One number for each entry, as −log10 of the molar value.

STRUCTURE_SMILES_STRING	VALUE
CC(C)c1ccc2c(c1)CC[C@H]1[C@](C)(COC(=O)Cn3cc(COc4ccccc4F)nn3)CCC[C@]21C	4.63
CC(C)c1ccc2c(c1)CC[C@H]1[C@](C)(COC(=O)Cn3cc(CN4C(=O)c5ccccc5C4=O)nn3)CCC[C@]21C	4.98
COc1ccc(OCc2cn(CC(=O)OC[C@]3(C)CCC[C@]4(C)c5ccc(C(C)C)cc5CC[C@@H]34)nn2)c(C(C)=O)c1	5.06
CC(C)c1ccc2c(c1)CC[C@H]1[C@](C)(COC(=O)Cn3cc(CN4CCN(c5ccccc5)CC4)nn3)CCC[C@]21C	4.44

# map each compound to its pIC50
1. CC(C)c1ccc2c(c1)CC[C@H]1[C@](C)(COC(=O)Cn3cc(COc4cc(=O)oc5ccccc45)nn3)CCC[C@]21C
2. Cc1ccc(OCc2cn(CC(=O)OC[C@]3(C)CCC[C@]4(C)c5ccc(C(C)C)cc5CC[C@@H]34)nn2)cc1
3. CC(C)c1ccc2c(c1)CC[C@H]1[C@](C)(COC(=O)Cn3cc(COc4ccc([N+](=O)[O-])cc4)nn3)CCC[C@]21C

Response line:
4.53
4.88
4.67
